# IC50 measurements, system: human stromelysin (MMP-3) (Homo sapiens)
Write the value in nM as a bare number.

Guide cases for IC50, answers given:
O=C(CC[C@H](NS(=O)(=O)c1ccc(-c2ccccc2)cc1)C(=O)O)Nc1ccc2ccccc2c1 = 200
O=C(CC[C@H](NS(=O)(=O)c1ccc(-c2ccccc2)cc1)C(=O)O)Nc1cccc2ccccc12 = 100

Proceeding to the next molecule to report its IC50.
Query for human stromelysin (MMP-3) (Homo sapiens): what IC50 does the record show for O=C(O)[C@H](CCC(=O)N1CCc2cc(F)ccc21)NS(=O)(=O)c1ccc(-c2ccc(N3CCOCC3)cc2)cc1 ? 100

---

Counter-ions that a name gives are not always drawn.
# pIC50 measurements, system: human stromelysin (MMP-3) (Homo sapiens, UniProt P08254)
# Sequence (P08254 100-272 limits assumed): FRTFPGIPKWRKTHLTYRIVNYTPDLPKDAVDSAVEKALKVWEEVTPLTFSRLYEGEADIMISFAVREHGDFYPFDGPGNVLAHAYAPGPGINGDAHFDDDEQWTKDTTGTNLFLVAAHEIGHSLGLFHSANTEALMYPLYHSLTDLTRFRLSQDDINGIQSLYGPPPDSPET
FYI, pIC50 means -log10 of a concentration in mol per litre.

Guide cases for pIC50, answers given:
O=C(CC[C@H](NS(=O)(=O)c1ccc(-c2ccccc2)cc1)C(=O)O)NCCCN1CCOCC1 [Example 5, trifluoroacetate] = 7.00
O=C(O)[C@H](CCC(=O)N1CCc2cc(F)ccc21)NS(=O)(=O)c1ccc(-c2ccc(N3CCCC3)cc2)cc1 = 7.52
O=C(O)[C@H](CCC(=O)N1CCc2ccccc21)NS(=O)(=O)c1ccc(-c2ccc(Cl)cc2)cc1 = 7.00

Proceeding to the next molecule to report its pIC50.
Could you tell me which pIC50 is on file for O=C(O)[C@H](CCC(=O)N1CCc2cc(F)ccc21)NS(=O)(=O)c1ccc(-c2ccc(Cl)cc2)cc1 ? 7.00
